# Tested on: PC-3 cells
# assay_details: Anti-proliferative toxicity against prostate cancer cell line PC-3 (CCK8)
# Assay type: cell-based, human
# applied_conditions: Homo sapiens, 72 h, 3 days
pIC50: −log10 of the molar value.
measurement_kind: pIC50

Examples with their reported pIC50 follow.
molecule: C[C@]12C=CC(=O)N[C@@H]1CC[C@@H]1[C@@H]2CC[C@]2(C)[C@@H](C(=O)Nc3cccc(NCCCNc4cccc5c4C(=O)N(C4CCC(=O)NC4=O)C5=O)c3)CC[C@@H]12 (stereo partly drawn)
measurement_kind: pIC50
result: 6.00 to 8.00
//
molecule: C[C@]12C=CC(=O)N[C@@H]1CC[C@@H]1[C@@H]2CC[C@]2(C)[C@@H](C(=O)Nc3ccc(OCCNc4ccc5c(c4)C(=O)N(C4CCC(=O)NC4=O)C5=O)nc3)CC[C@@H]12 (stereo partly drawn)
measurement_kind: pIC50
result: < 6.00

Prompt: Any idea what pIC50 was measured for C[C@]12C=CC(=O)N[C@@H]1CC[C@@H]1[C@@H]2CC[C@]2(C)[C@@H](C(=O)Nc3cccc(OCCCCCCCCNc4cccc5c4C(=O)N(C4CCC(=O)NC4=O)C5=O)c3)CC[C@@H]12 (stereo partly drawn) ?
Completion: < 6.00
